- targetEntity: T1, EDIII-DV4 (E protein domain III of dengue virus serotype DV-4) (dengue virus serotype DV-4, UniProt P09866 572-679)
- T1 construct: also called DENV-4
- T1 sequence (P09866 572-679, tags left off): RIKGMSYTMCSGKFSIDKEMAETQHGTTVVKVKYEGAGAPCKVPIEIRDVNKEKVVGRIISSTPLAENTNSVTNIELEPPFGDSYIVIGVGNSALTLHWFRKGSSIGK
pKd: −log10 of the molar value.
Form field: pKd (one value per entry).
measurementKind: pKd

- binder: "antibody B48 (antibody, V domains shown, also called mAb B48) VH: QVQLVQSGAEVKKPGASVKVSCKAGFNIKDTYMSWVRQAPEQGLEWMGRIDPENGDTKYDPKLQGRVTMTADTSTNTAYMELRSLRSDDTAVYYCARGWEGFAYWGQGTLVTVSS VL: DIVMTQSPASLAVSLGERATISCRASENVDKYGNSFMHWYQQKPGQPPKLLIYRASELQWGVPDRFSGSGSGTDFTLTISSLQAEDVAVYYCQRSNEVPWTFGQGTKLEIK"
  measurementKind: "pKd"
  reported: 7.71
- binder: "antibody D48 (antibody, V domains shown) VH: VKLLEQSGAEVKKPGASVKVSCKASGFNIKDVYMSWVRQAPEQGLEWMGRIDPENGDTKYDPKLQGRVTMTADTSTNTAYMELRSLRSDDTAVYYCARGWEGFAYWGQGTLVTVSS VL: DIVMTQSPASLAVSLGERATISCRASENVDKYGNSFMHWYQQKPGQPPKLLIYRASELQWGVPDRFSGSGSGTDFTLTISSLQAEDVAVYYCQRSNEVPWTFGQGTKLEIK"
  measurementKind: "pKd"
  reported: 8.13
- binder: "A48+InsE6 (antibody, V domains shown) VH: VQLVEQSGAEVKKPGASVKVSCKASGFNIKDVYMSWVRQAPEQGLEWMGRIDPENGDTKYDPKLQGRVTMTADTSTNTAYMELRSLRSDDTAVYYCARGWEGFAYWGQGTLVTVSS VL: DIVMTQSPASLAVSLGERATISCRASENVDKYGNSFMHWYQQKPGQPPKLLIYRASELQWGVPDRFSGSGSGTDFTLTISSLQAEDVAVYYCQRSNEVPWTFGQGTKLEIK"
  measurementKind: "pKd"
  reported: 7.71
- binder: "B48+InsE6 (antibody, V domains shown) VH: VQLVEQSGAEVKKPGASVKVSCKAGFNIKDTYMSWVRQAPEQGLEWMGRIDPENGDTKYDPKLQGRVTMTADTSTNTAYMELRSLRSDDTAVYYCARGWEGFAYWGQGTLVTVSS VL: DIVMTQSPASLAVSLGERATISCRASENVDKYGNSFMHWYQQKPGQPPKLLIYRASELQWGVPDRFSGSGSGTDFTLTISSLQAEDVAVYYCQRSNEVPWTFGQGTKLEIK"
  measurementKind: "pKd"
  reported: 7.57
- binder: "A48+V2L (antibody, V domains shown) VH: QLQLVQSGAEVKKPGASVKVSCKASGFNIKDVYMSWVRQAPEQGLEWMGRIDPENGDTKYDPKLQGRVTMTADTSTNTAYMELRSLRSDDTAVYYCARGWEGFAYWGQGTLVTVSS VL: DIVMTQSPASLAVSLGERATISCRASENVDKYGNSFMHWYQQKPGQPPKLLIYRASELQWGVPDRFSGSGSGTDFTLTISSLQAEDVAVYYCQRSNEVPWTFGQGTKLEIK"
  measurementKind: "pKd"
  reported: 7.67

Values compiled from patent US20240425569A1.
